target or system: Mot3 (UniProt P54785)
Sequence: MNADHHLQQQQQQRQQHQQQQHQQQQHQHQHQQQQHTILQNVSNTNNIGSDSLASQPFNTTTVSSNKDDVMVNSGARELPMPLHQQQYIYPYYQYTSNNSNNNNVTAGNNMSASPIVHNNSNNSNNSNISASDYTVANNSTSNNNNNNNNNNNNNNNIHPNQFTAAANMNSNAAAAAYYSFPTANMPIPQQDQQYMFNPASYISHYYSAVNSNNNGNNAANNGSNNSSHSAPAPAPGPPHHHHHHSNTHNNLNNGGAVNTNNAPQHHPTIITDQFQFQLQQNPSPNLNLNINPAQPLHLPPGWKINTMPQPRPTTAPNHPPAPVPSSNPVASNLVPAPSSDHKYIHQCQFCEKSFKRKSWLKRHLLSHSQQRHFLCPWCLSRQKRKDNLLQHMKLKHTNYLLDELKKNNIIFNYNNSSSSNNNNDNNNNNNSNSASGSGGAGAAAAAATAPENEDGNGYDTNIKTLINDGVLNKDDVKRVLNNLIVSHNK
test description: PBM E-score (8-mer binding enrichment) (E-score (-0.5 to 0.5)); higher = stronger / more preferred TF binding
condition set: protein concentration: 200 nM; construct: GST-full length
In all, about 33,000 sequences were measured (“E-score (-0.5 to 0.5)”: median about -0.035, highest 2% from about 0.34 on). Only a selection was taken, and the highest values are over-represented in it overall.
Rule: criterion met for PBM E-score not less than 0.05, criterion not met for anything less.

Some solved cases for reference:
CAGGTGCA ... criterion met
TAAAGGAA ... criterion met
AGAGCCTG ... criterion met
CAAAGGAA ... criterion met
CCTGAACA ... criterion met

As a next step, examine the sequence that follows.
Q) State whether the measured PBM E-score reaches 0.05, counting equality as reaching it, for `AGAGCCTC`
A) criterion not met

---

target or system: Mot3 (UniProt P54785)
Sequence: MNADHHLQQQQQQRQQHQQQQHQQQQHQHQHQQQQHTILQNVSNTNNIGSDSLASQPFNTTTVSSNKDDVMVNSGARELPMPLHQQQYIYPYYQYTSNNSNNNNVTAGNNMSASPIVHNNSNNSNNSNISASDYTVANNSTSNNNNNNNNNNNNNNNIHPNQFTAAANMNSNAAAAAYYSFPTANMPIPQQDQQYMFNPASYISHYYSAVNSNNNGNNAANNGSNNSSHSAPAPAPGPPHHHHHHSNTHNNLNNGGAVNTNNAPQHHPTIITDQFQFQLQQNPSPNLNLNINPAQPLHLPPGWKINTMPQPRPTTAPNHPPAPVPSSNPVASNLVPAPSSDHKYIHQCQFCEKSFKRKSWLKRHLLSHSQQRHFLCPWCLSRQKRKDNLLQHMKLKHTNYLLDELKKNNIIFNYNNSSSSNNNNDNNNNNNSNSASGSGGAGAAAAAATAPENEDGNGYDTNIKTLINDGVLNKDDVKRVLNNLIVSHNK
test description: PBM E-score (8-mer binding enrichment) (E-score (-0.5 to 0.5)); higher = stronger / more preferred TF binding
condition set: protein concentration: 200 nM; construct: GST-full length
The full ranking holds about 33,000 sequences; the median of “E-score (-0.5 to 0.5)” is about -0.035, and the highest 2% start at about 0.34. This is one part of a sample in which the highest values are shown more often than they occur.
readout type: PBM E-score
The answer should be written as a number, with no unit following it.

ACTACACG ... 0.386

Q) With Mot3 (UniProt P54785) as the test system, provide measured PBM E-score for this sequence: `CGGTCTAC`
A) -0.0115

Q) With Mot3 (UniProt P54785) as the test system, provide measured PBM E-score for this sequence: `TCAACACA`
A) 0.353

Q) With Mot3 (UniProt P54785) as the test system, provide measured PBM E-score for this sequence: `AAAGCCGG`
A) -0.133

Q) With Mot3 (UniProt P54785) as the test system, provide measured PBM E-score for this sequence: `ACTACACA`
A) 0.331

These data points were gathered from the supplement of paper PMC3334620.
